biological target: SARS-COV-2 RBD extracellular domain expressed with a C-terminal mouse IgG2a Fc (SARS-CoV-2); experiment: Biacore SPR, mAb captured on anti-hFc, 25 C
measure_name: pKd
Numbers only, as −log10 of the molar value.

Prompt: Need pKd, item mAb14285 (antibody, V domains shown) VH: QVQLVQSGAEVKKPGASVKVSCKASGYTFTGYFIHWVRQAPGQGLEWMGWISPISGGTNYAQKFQGRVTVTRDTSITTAYMELSRLTSDDTAVYHCAREGGTWKGDFDYWGQGTLVTVSS VL: QSALTQPASVSGSPGQSITISCTGTSSDVESYNLVSWYQQHPGKAPKLMIYEGSKRPSGVSNRFSGSKSGNTASLTISGLQAEDEADYYCSSYAGSSTWVFGGGTKLTVLG
Response: 10.06

Continuing:
Prompt: Need pKd, item mAb15151 (antibody, V domains shown) VH: QVQLVESGGGVVQPGRSLRLSCAASGFVFNSYGMHWVRQAPGKGLEWVAVLWYEGSKNYYADSVKGRFTISRDNSKNTLYLQMNSLRAEDTAVYYCARHGSGSFFGYYLDYWGQGTLVTVSS VL: DIQMTQSPSSLSASVGDRVTITCRASHNINDFLNWYQQKPGKAPRLLIYAASSLQSGVPSRFSGSGSGTDFTLTISSLQPEDFATYYCQESYTTPPTFGQGTKLEIKR
Response: 11.47
